Hey, just so you know, these numbers are from patent US20110136229A1.

# targetOrTestSystem: CPL (Carica papaya lectin), purified lectin from papaya seeds
# measurementNotes: Interaction between CPL and immobilized GalNAc residues by surface plasmon resonance
# Type: binding
# experimentalConditions: GalNAc-PAA-biotin polymers immobilized on SA chip; CPL 1.8-30 nM as analyte; Biacore T100; read-out: dissociation constant (Kd)
assayEndpoint: Kd

Data request: What Kd value was documented for this molecule, CC(=O)N[C@H]1C(O)O[C@H](CO)[C@H](O)[C@@H]1O (stereo partly shown) [N-acetylgalactosamine] ?
Data returned: ~5.5 nM
